- STUDY_TARGET: SMYD3 (Homo sapiens (Human), UniProt Q9H7B4)
- Sequence (Q9H7B4 whole entry): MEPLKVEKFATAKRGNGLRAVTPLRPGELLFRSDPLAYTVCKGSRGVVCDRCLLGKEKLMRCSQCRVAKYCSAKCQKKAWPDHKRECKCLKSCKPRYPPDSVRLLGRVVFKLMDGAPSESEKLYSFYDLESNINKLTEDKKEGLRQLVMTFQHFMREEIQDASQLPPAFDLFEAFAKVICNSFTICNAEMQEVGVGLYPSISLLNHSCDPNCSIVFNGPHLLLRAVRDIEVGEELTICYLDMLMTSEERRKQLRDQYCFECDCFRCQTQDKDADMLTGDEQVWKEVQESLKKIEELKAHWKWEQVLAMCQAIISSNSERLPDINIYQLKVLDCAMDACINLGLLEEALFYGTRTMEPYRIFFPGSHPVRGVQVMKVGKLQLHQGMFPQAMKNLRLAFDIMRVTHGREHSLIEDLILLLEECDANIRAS
- PROCEDURE_SUMMARY: SMYD3 biochemical assay (SMYD3 enzyme assay on MEKK2 protein substrate, 3H-SAM scintillation proximity assay)
- CONDITION_SET: Table 3A; average of n = 1 to n = 50; read-out: SMYD3 Biochem IC50
- Description: S-adenosylmethionine (SAM), S-adenosylhomocysteine (SAH), Tris, Tween20, dimethylsulfoxide (DMSO), bovine skin gelatin (BSG), and Tris(2-carboxyethyl)phosphine hydrochloride solution (TCEP) were purchased from Sigma-Aldrich at the highest level of purity possible. ^3H-SAM was purchase from American Radiolabeled Chemicals with a specific activity of 80 Ci/mmol. 384-well opaque white OptiPlates and SPA beads (Perkin Elmer, catalog # RPNQ0013) were purchased from PerkinElmer. […]
OBSERVED_PROPERTY: IC50 (nM)

Solved cases (5 shown):
Query string: # value lookup — system SMYD3 (Homo sapiens (Human), UniProt Q9H7B4), readout IC50, item N[C@H]1CC[C@H](S(=O)(=O)N2[C@@H]3CC[C@H]2C[C@@H](NC(=O)c2ccc4c(c2)OC(F)(F)O4)C3)CC1
Result string: 136

Query string: # value lookup — system SMYD3 (Homo sapiens (Human), UniProt Q9H7B4), readout IC50, item NC1CCN(S(=O)(=O)N2[C@@H]3CC[C@H]2C[C@@H](NC(=O)c2cc(C4CC4)[nH]n2)C3)CC1
Result string: 529

Query string: # value lookup — system SMYD3 (Homo sapiens (Human), UniProt Q9H7B4), readout IC50, item CN(C)C1CCN(S(=O)(=O)N2[C@@H]3CC[C@H]2C[C@@H](NC(=O)c2ccc4c(c2)CC(=O)N4)C3)CC1
Result string: 2.89

Query string: # value lookup — system SMYD3 (Homo sapiens (Human), UniProt Q9H7B4), readout IC50, item O=C1Cc2cc(C(=O)N[C@H]3C[C@H]4CC[C@@H](C3)N4S(=O)(=O)CC3CCN(CCCO)CC3)ccc2N1
Result string: 0.95

Query string: # value lookup — system SMYD3 (Homo sapiens (Human), UniProt Q9H7B4), readout IC50, item CN1CCC(CS(=O)(=O)N2[C@@H]3CC[C@H]2C[C@@H](NC(=O)c2ccc4c(c2)OC(F)(F)O4)C3)CC1
Result string: 361

P: C[C@H]1C[C@@H](NC(=O)c2nnc(C3CC3)s2)CCN1S(=O)(=O)N1CCC(N)CC1
Q: CCc1cnnc(C(=O)N[C@H]2CCN(S(=O)(=O)N3CCC(N)CC3)[C@@H](C)C2)c1
Query string: Please tell me which of the two, P or Q , has the higher reported IC50 value. State the label of the item chosen.
Result string: Q

P: C[C@H]1C[C@@H](NC(=O)c2cnn(C3CC3)c2)CCN1S(=O)(=O)N1CCC(N)CC1
Q: CC(=O)Nc1ccc(S(=O)(=O)N2CC[C@H](NC(=O)c3ccc4c(c3)CC(=O)N4)C[C@@H]2C)cc1
Query string: I would appreciate it if you could say which entry, P or Q , has the lower IC50 value. State the label of the item chosen.
Result string: Q
(Q: 526 nM, P: 1000 nM)

A: C[C@H]1C[C@@H](NC(=O)c2cc3c(cc2Cl)NC(=O)C3)CCN1S(=O)(=O)N1CCC(N)CC1
B: C[C@@H]1CN(S(=O)(=O)N2CCC(N)CC2)CC[C@H]1NC(=O)c1cc2c(cc1Cl)NC(=O)C2
Query string: Please tell me which of the two, A or B , has the higher reported IC50 value. State the label of the item chosen.
Result string: B
(B: 21.4 nM, A: 0.98 nM)
